This collection of values is drawn from ChEMBL document CHEMBL4184155.

method: Antioxidant activity assessed as Trolox equivalents of photolysis-induced hydroxyl radical scavenging activity using DMPO spin trap by ESR spectroscopic method
Format: functional
Exam item: assign yes to entries whose Activity is below 0.7 equiv and no to entries at or above 0.7 equiv. Note that a value of exactly 0.7 equiv receives no.

Please review the entries below; each comes with its answer.
Ask | Given Oc1ccc(/C=C/c2cc(O)cc(O)c2)cc1 , is recorded Activity strictly lower than 0.7 equiv?
Reply | yes

Ask | Strictly below 0.7 equiv in Activity? COc1cc(/C=C/c2ccc(O)cc2)cc(OC)c1
Reply | yes

Ask | Activity strictly < 0.7 equiv for this molecule? Oc1cc(O)cc(/C=C/c2ccc(O)c(O)c2)c1
Reply | no

Next:
Ask | Determine whether this molecule shows Activity lower than 0.7 equiv (ties excluded): COc1cc(/C=C/c2ccc(OC)c(OC)c2)cc(OC)c1
Reply | no
